test system: RSK1(Kin.Dom.2-C-terminal); construct: gene RPS6KA1; conditions: concentration: 1 μM, replicates: in singlicate; n = 1
quantity measured: %Inh (%)
Return type: number; implicit unit %.

Which value of %Inh has been reported for O=C(Nc1ccccc1)Nc1ccc(Oc2ccc3nccn3n2)cc1 in the records?
0

Returns the measured %Inh for the input molecule. Input: O=C(c1ccc(-c2cc(-c3c[nH]nc3-c3ccccn3)ccn2)cc1)N1CCCC1
0

Quick check: %Inh of Nc1nc(-c2ccccn2)c(-c2ccnc3ccccc23)s1 ?
39

Entry OCCOCCn1ccc2ncnc(Nc3ccc(Oc4cccc(Cl)c4)c(Cl)c3)c21 : reported %Inh = ?
0

Bench note: what %Inh did Fc1cccc(COc2ccc(Nc3ncnc4sc(-c5ccc[nH]5)cc34)cc2Cl)c1 show?
8

I would be grateful if you could share the reported %Inh for Cc1ccc(C)c(NC(=O)NCCNc2ccnc(Nc3ccc(F)cc3)n2)c1 .
0

Can you look up the measured %Inh of CCc1nc(-c2cccc(C)c2)c(-c2ccnc(NC(=O)c3ccccc3)c2)s1 for me?
53

Record request: %Inh value, item Fc1cccc(COc2ccc(Nc3ncnc4cc[nH]c34)cc2Cl)c1
23

If you can, please state the reported %Inh value of Cn1ccc2ncnc(Nc3ccc(Oc4cccc(Cl)c4)c(Cl)c3)c21 .
0

====

test system: BIKE; construct: gene BMP2K; details: concentration: 1 μM, replicates: in singlicate; n = 1
Please go through the items and note down their %Inh.
Write the number in % without appending the unit.

Reported %Inh for CCc1nc(-c2cccc(C)c2)c(-c2ccnc(NC(=O)c3ccccc3)c2)s1 : what is it?
0

Give its %Inh value. Item: O=C(c1ccc(-c2cc(-c3c[nH]nc3-c3ccccn3)ccn2)cc1)N1CCCC1
18

What does the data say about its %Inh? Entry: Cc1cccc(-c2nc(Nc3ccc4[nH]nnc4c3)c3ccccc3n2)n1
0

Item CN1CCC(n2cnc(-c3ccc(F)cc3)c2-c2ccnc(NC3CCNCC3)n2)CC1 has what recorded %Inh?
0

// query %Inh value for entry Nc1nc(-c2ccc3c(N)n[nH]c3c2)cc(N2CCCCC2)n1
56

If you can, please state the reported %Inh value of Fc1cccc(COc2ccc(Nc3ncnc4cc[nH]c34)cc2Cl)c1 .
9

Param item = Oc1ccc2ncnc(Nc3ccc(OCc4ccccc4)cc3)c2c1 ; retrieve measured %Inh.
20

Would you mind telling me what %Inh value was observed for CC(C)N1CCC(n2cnc(-c3ccc(F)cc3)c2-c2ccnc(N)n2)CC1 ?
32

Endpoint output: %Inh of CS(=O)(=O)CCNCc1ccc(-c2ccc3ncnc(Nc4ccc(OCc5ccccc5)c(Cl)c4)c3c2)o1.Cl . Value?
19

Give the measured %Inh of Cc1ccc(NC(=O)c2cccc(C#N)c2)cc1-c1ccc(C(=O)Nc2ccncc2)cc1 .
24

%Inh lookup needed for CCC(CC)(CC)n1cnc2c(N)ncnc21 , thanks.
0

Find the recorded %Inh belonging to Cc1cc(N2CCC(NS(=O)(=O)c3ccc(F)cc3)CC2)nc(Nc2cccc(C#N)c2)n1.O=C(O)C(F)(F)F and report it.
21

Give the measured %Inh of Clc1ccc(-c2cc(-c3c[nH]nc3-c3ccccn3)ccn2)cc1 .
23

Item under review: Cc1ccc(C)c(NC(=O)NCCNc2ccnc(Nc3ccc(F)cc3)n2)c1 . Reported %Inh?
20

Quick one: %Inh of C[C@H]1CC[C@@H](C(=O)Nc2ccccc2)CN1c1cc(-c2ccc3c(N)n[nH]c3c2)nc(N)n1 ?
23

Bench note: what %Inh did CNc1nccc(-c2c(-c3ccc(F)cc3)ncn2CCCN2CCOCC2)n1 show?
0

Item under review: Cn1ccc2ncnc(Oc3ccc(NC(=O)Nc4cccnc4)c(Cl)c3)c21 . Reported %Inh?
0

%Inh lookup needed for Nc1nc(-c2ccc3c(N)n[nH]c3c2)cc(N2CCC[C@@H](C(=O)Nc3ccccc3)C2)n1.O=C(O)C(F)(F)F.O=C(O)C(F)(F)F , thanks.
29

What does the record list as %Inh for CS(=O)(=O)CCNCc1nc(-c2ccc3ncnc(Nc4ccc(OCc5cccc(F)c5)c(Cl)c4)c3c2)cs1.Cl ?
0

Item under review: CN1c2ccc(-c3ccc(C(=O)NCCO)cc3)cc2-c2[nH]ncc2S1(=O)=O . Reported %Inh?
10

// %Inh lookup, key: FC(F)(F)c1cc(Nc2nccc(-c3c(-c4ccc(Cl)cc4)nn4ncccc34)n2)ccc1Cl
0

Reported %Inh for FC(F)(F)c1ccc(-c2cc(-c3c[nH]nc3-c3ccccn3)ccn2)cc1 : what is it?
13

For Fc1cccc(COc2ccc(Nc3ncnc4sc(-c5ccc[nH]5)cc34)cc2Cl)c1 , what is its reported %Inh?
24

Look up %Inh for this compound: CSc1nn2c(=O)cc(N3CCOCC3)nc2n1Cc1cccc(Cl)c1Cl
29

%Inh lookup needed for Fc1ccc(-c2ncn(CCCNCc3ccccc3)c2-c2ccncc2)cc1 , thanks.
0

Endpoint output: %Inh of Cl.Fc1ccccc1COc1ccc(Nc2ncnc3ccc(-c4nnc(C(F)(F)F)o4)cc23)cc1Cl . Value?
9

What does the data say about its %Inh? Entry: CC(=O)Nc1n[nH]c2ncc(-c3ccccc3)cc12
7

Endpoint output: %Inh of O=C(Nc1ccccc1F)NC1CCN(c2ccnc(Nc3ccc(F)cc3)n2)C1 (stereo not shown) . Value?
8

Please give the measured %Inh for this compound: COc1ccc(Nc2nccc(N3CCC(NC(=O)c4cccc(NC(C)=O)c4)C3)n2)cc1 (stereo not shown)
0

Item under review: CCc1nc(-c2cccc(N(C)S(=O)(=O)c3ccccc3)c2)c(-c2ccnc(Nc3ccc(N4CCN(C(C)=O)CC4)nc3)n2)s1 . Reported %Inh?
0

Value lookup for %Inh; key = Fc1ccc(Nc2nccc(-c3c(-c4ccc(Cl)cc4)nn4ncccc34)n2)cc1F
0

Look up %Inh: COC(=O)c1cccc(NC(=O)NCCNc2ccnc(Nc3ccc(F)cc3)n2)c1
22

Any idea what its %Inh is? The compound is OCCOCCn1ccc2ncnc(Nc3ccc(Oc4cccc(Cl)c4)c(Cl)c3)c21
0

Fill in the blank: the reported %Inh of Nc1nccc2scc(-c3ccc4c(c3)CCN4C(=O)Cc3cc(F)ccc3F)c12 is ____.
10

====

test system: p38-alpha; construct: gene MAPK14;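 also: kd values determined as follow-up on hits from a single-replicate KINOMEscan panel screen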
Field: Kd. Provide a value for each of the molecules that follow.
Just the number in nM, nothing appended.

Which Kd is listed for CN1CCC(n2cnc(-c3ccc(F)cc3)c2-c2ccnc(NC3CCNCC3)n2)CC1 ?
220

Which Kd value is on record for NC(=O)c1sc(-n2cnc3ccccc32)cc1OCc1ccccc1F ?
280

Fill in the blank: the reported Kd of COc1cc2c(Nc3cccc(NC(=O)c4ccccc4)c3)ncnc2cc1OCCCN1CCOCC1 is ____.
440

For the molecule shown here, COc1ccc(NC(=O)c2ccc(-c3cc(-c4nnc(C)o4)ccc3C)cc2)cc1 , give the reported Kd.
180

What value of Kd has been reported for the following molecule? CNc1nccc(-c2c(-c3ccc(F)cc3)ncn2C2CCN(C)CC2)n1
53

====

test system: BUB1; conditions: concentration: 1 μM, replicates: in singlicate; n = 1
quantity measured: %Inh (%)
Number only, in %; omit the unit.

Give BUB1 %Inh for FC(F)(F)c1ccc(-c2cc(-c3c[nH]nc3-c3ccccn3)ccn2)cc1
55

Short answer please: %Inh, BUB1, entry CSc1nn2c(=O)cc(N3CCOCC3)nc2n1Cc1cccc(Cl)c1Cl
0

Lookup: %Inh / BUB1 / Oc1ccc2ncnc(Nc3ccc(OCc4ccccc4)cc3)c2c1
18

# get_value(readout= %Inh, system= BUB1) for Cn1ccc2ncnc(Nc3ccc(Oc4cccc(Cl)c4)c(Cl)c3)c21
12

Query %Inh on BUB1 for NC(=O)c1sc(-n2cnc3ccccc32)cc1OCc1ccccc1F
20

# query: %Inh | item Clc1cc(Nc2ncnc3cc[nH]c23)ccc1OCc1ccccn1 | system: BUB1
0

Give the reported %Inh for COc1cc2c(Nc3cccc(NC(=O)c4ccccc4)c3)ncnc2cc1OCCCN1CCOCC1 (system: BUB1).
31

Recorded %Inh for CN1c2ccc(-c3ccc(C(=O)NCCO)cc3)cc2-c2[nH]ncc2S1(=O)=O with BUB1, please?
0

Item Nc1nc(-c2ccc3c(N)n[nH]c3c2)cc(N2CCCCC2)n1 with BUB1 - %Inh?
21

Request - read-out %Inh | tested on BUB1 | molecule Clc1ccc(-c2cc(-c3c[nH]nc3-c3ccccn3)ccn2)cc1
31

// lookup %Inh | system=BUB1 | key= CS(=O)(=O)CCNCc1ccc(-c2ccc3ncnc(Nc4ccc(OCc5ccccc5)c(Cl)c4)c3c2)o1.Cl
26

Requested read-out %Inh, target or system BUB1, entry Nc1nc(-c2cccnc2)c(-c2ccnc3ccccc23)s1
58

Please provide the recorded %Inh for CCc1nc(-c2cccc(C)c2)c(-c2ccnc(NC(=O)c3ccccc3)c2)s1 , tested on BUB1.
17

Hi! What's the reported %Inh for Cl.Fc1ccccc1COc1ccc(Nc2ncnc3ccc(-c4nnc(C(F)(F)F)o4)cc23)cc1Cl on BUB1?
0

Under BUB1: %Inh value of Cl.Cl.c1ccc(-c2cc3ccncc3cc2OC2CCNCC2)cc1 ?
0

Param readout= %Inh; system= BUB1; entry= Cl.c1ccc(Cn2ncc3cc(Nc4ncnc5ccccc45)ccc32)cc1 ; returns value.
0

For the record O=c1cc(N2CCOCC2)nc2n(Cc3cccc(Cl)c3)ccn12 , what value of %Inh is listed for BUB1?
18

Param readout = %Inh; param system = BUB1; param query = CN1CCC(n2cnc(-c3ccc(F)cc3)c2-c2ccnc(NC3CCNCC3)n2)CC1 ; response: value
17

API: value(readout= %Inh, system= BUB1, query= CSc1ccc(NC2=C(c3ccccc3Cl)C(=O)NC2=O)cc1 )
0

Request: %Inh, test system BUB1, entry CCn1c(-c2ccncc2)nc2cnccc21
15

Lab note: need %Inh for Cc1ccc(C)c(NC(=O)NCCNc2ccnc(Nc3ccc(F)cc3)n2)c1 on BUB1, anyone have it?
14

So what %Inh did COc1cc2ncnc(Nc3ccc(OCc4ccccc4Br)c(Cl)c3)c2cc1OC.Cl get with BUB1?
66

Any idea what %Inh came out for Nc1nccc2scc(-c3ccc4c(c3)CCN4C(=O)Cc3cc(F)ccc3F)c12 on BUB1?
45

Hello, I am looking for reported %Inh with BUB1 for Nc1n[nH]c2nnc(-c3ccccc3)cc12 . Could you help?
0

Value wanted: %Inh (BUB1) of entry Cc1cc(N2CCC(NS(=O)(=O)c3ccc(F)cc3)CC2)nc(Nc2cccc(C#N)c2)n1.O=C(O)C(F)(F)F
0

What value of %Inh on BUB1 does c1ccc(-c2ccc3c(-c4ccnc(Nc5ccc6c(c5)OCCO6)n4)cnn3n2)cc1 have?
28

Param readout= %Inh; system= BUB1; entry= O=C(Nc1ccccc1)Nc1ccc(Oc2ccc3nccn3n2)cc1 ; returns value.
0

Fill in the recorded %Inh for this molecule, with BUB1 as test system: Fc1cccc(COc2ccc(Nc3ncnc4cc[nH]c34)cc2Cl)c1
1

# get_value(readout= %Inh, system= BUB1) for OCCOCCn1ccc2ncnc(Nc3ccc(Oc4cccc(Cl)c4)c(Cl)c3)c21
0

Find %Inh (BUB1) for the entry Cc1ccc(O)cc1Nc1cc(C(F)(F)F)nc2ccc(-c3ccncc3)cc12
0

// map CC(=O)Nc1n[nH]c2ncc(-c3ccccc3)cc12 to recorded %Inh (system: BUB1)
0

Requested read-out %Inh, target or system BUB1, entry COC(=O)c1c(-c2ccccc2)c2cc(Cl)ccc2c(=O)n1Cc1ccc(S(C)(=O)=O)cc1
0

What is its %Inh for BUB1? Entry: Nc1nc(-c2ccc3c(N)n[nH]c3c2)cc(N2CCC[C@@H](C(=O)Nc3ccccc3)C2)n1.O=C(O)C(F)(F)F.O=C(O)C(F)(F)F
0

Identify the measured %Inh of COc1ccc(-c2oc3ncnc(N)c3c2-c2ccc(OC)cc2)cc1 for BUB1.
64

For the record Nc1nc(-c2ccccn2)c(-c2ccnc3ccccc23)s1 , what value of %Inh is listed for BUB1?
39

Tell me reported %Inh for Cl.c1ccc(Cn2ccc3cc(Nc4ncnc5ccccc45)ccc32)cc1 , tested with BUB1.
0
